assay: Drug level in mouse brain at 30 mg/kg, ip; format: ADME, organism-based; conditions: in vivo, read-out: Drug uptake
VALUE_TYPE: concentration

1) FC(F)(F)Oc1ccc(Oc2ccnc(N3CCC(NC(=S)Nc4cccnc4)CC3)c2Cl)c(Cl)c1; 3 to 9 µM

* * *

test: Drug level in mouse peripheral regions at 30 mg/kg, po; format: ADME, organism-based; details: in vivo, read-out: Drug uptake
VALUE_TYPE: concentration

1. FC(F)(F)Oc1ccc(Oc2ccnc(N3CCC(NC(=S)Nc4cccnc4)CC3)c2Cl)c(Cl)c1; 3 to 9 µM

* * *

Target: UniProt Q99LR1
Sequence (Q99LR1 whole entry): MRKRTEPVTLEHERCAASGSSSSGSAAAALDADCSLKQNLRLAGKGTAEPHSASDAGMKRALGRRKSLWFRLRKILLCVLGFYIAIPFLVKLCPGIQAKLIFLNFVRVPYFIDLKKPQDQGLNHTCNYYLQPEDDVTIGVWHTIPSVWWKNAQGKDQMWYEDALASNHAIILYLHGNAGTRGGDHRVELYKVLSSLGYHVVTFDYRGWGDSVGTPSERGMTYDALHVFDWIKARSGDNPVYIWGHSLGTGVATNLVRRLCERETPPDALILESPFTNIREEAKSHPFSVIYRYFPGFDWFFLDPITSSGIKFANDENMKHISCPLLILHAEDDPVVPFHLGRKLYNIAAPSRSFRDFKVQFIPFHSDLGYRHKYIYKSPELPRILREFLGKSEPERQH
Assay: Inhibition of JJH350 binding to ABHD12 in mouse brain membrane proteome incubated for 20 mins by CuAAC fluorescence dependent gel-based competitive ABPP assay
Format: cell membranes
VALUE_TYPE: log10(IC50) (log10 of the value in nM)

1. FC(F)(F)c1cc(N2CCC(NC(=S)Nc3cccnc3)CC2)ncc1Cl; 3.15
2. FC(F)(F)Oc1ccc(Oc2ccnc(N3CCC(NC(=S)Nc4cccnc4)CC3)c2Cl)cc1; 1.40
3. S=C(Nc1cccnc1)NC1CCN(c2cc(OC3CCCCC3)ccn2)CC1; 3.53
4. FC(F)(F)c1ccc(N2CCC(NC(=S)Nc3cccnc3)CC2)nc1; 3.28
5. FC(F)(F)c1cnc(N2CCC(NC(=S)Nc3cccnc3)CC2)c(Cl)c1; 3.04
